- System: SARS-CoV-2 Papain-Like Protease (PLpro) (Severe acute respiratory syndrome coronavirus 2 (2019-nCoV) (SARS-CoV-2))
- Test: biochemical
- Condition parameters: SARS-CoV-2 PLpro enzymatic fluorescence assay; read-out: PLpro IC50
pIC50: −log10 of the molar value.

{"columns": ["Molecule", "pIC50"],
 "data": [
  ["Cc1cc2nc[nH]c2cc1C(=O)N[C@H](C)c1cccc2ccccc12", "5.30 to 6.00"],
  ["Cc1ccc(OC[C@H]2CCCN2)cc1C(=O)NC1(c2cccc3ncccc23)CC1", "> 7.00"],
  ["Cc1ccc(OCCN(C)C)cc1C(=O)NC1(c2cccc3sccc23)CC1", "> 7.00"],
  ["C=Cc1cc(C2(NC(=O)c3cc(O[C@@H](C)[C@@H]4CCN4C)ccc3C)CC2)c2cccnc2c1 (relative stereo)", "> 7.00"],
  ["Cc1ccc(OCC2CCN2CC(F)(F)F)cc1C(=O)NC1(c2cccc3ccccc23)CC1 (centres unmarked)", "5.30 to 6.00"],
  ["Cc1ccc(OC[C@@H]2CCN2C)cc1C(=O)NC1(c2cc(Cl)nc3cc(F)ccc23)CC1", "> 7.00"],
  ["Cc1ccc(OCCN(C)C)cc1C(=O)NC1(c2cccc3cnccc23)CC1", "> 7.00"],
  ["Cc1cc(N)c(OCC2CCN2C)cc1C(=O)NC1(c2cccc3ccccc23)CC1 (centres unmarked)", "> 7.00"],
  ["Cc1ccc(OCCN(C)C)cc1C(=O)NC1(c2cccc3cccnc23)CC1", "> 7.00"],
  ["COc1cc(C2(NC(=O)c3cc(OC[C@@H]4CCN4C)ccc3C)CC2)c2cccnc2c1", "> 7.00"],
  ["Cc1cc2cc(CN)[nH]c2cc1C(=O)NC1(c2ccc3ccccc3c2)CC1", "5.30 to 6.00"],
  ["Cc1ccc(OC[C@@H]2CCN2)cc1C(=O)NC1(c2cccc3cc(F)ccc23)CC1", "> 7.00"],
  ["Cc1ccc(OC[C@H]2CCN2)cc1C(=O)NC1(c2cccc3ncccc23)CC1", "> 7.00"],
  ["Cc1ccc(OCC2CCN2C)cc1C(=O)NC1(c2cccc3cnc(O)cc23)CC1 (centres unmarked)", "6.00 to 7.00"],
  ["CCS(=O)(=O)c1cc(C2(NC(=O)c3cc(OCCN(C)C)ccc3C)CC2)c2ccccc2c1", "6.00 to 7.00"],
  ["Cc1ccc(OC[C@@H]2CCN2C)cc1C(=O)NC1(c2cccc3nc(O)ccc23)CC1", "> 7.00"],
  ["Cc1cc2cc(C(N)=O)[nH]c2cc1C(=O)NC1(c2cccc3ccccc23)CC1", "6.00 to 7.00"]
]}

* * *

- System: UniProt P0DTD1
- Test: biochemical
- Condition parameters: SARS-CoV-2 PLpro enzymatic fluorescence assay; read-out: PLpro IC50
Recorded measurements of IC50, one per entry
Experimental endpoint: IC50

{"columns": ["Molecule", "Assay result"],
 "data": [
  ["Cc1ccc(CCCN)cc1C(=O)NC1(c2cccc3ccccc23)CC1 [Compound 472]", "< 100 nM"],
  ["Cc1ccc(OC[C@H]2C[C@H](O)CN2C)cc1C(=O)NC1(c2cccc3ccccc23)CC1 (single isomer, unassigned) [Compound 439]", "< 100 nM"],
  ["Cc1cc2ccn(C)c2cc1C(=O)NC1(c2cccc3ccccc23)CC1 [Compound 201]", "100 to 1000 nM"],
  ["COc1cc(C2(NC(=O)c3cc(CC[C@@H]4CCC4C)ccc3C)CC2)c2ccncc2c1 (some centres unmarked) [Compound 538]", "< 100 nM"],
  ["Cc1ccc(OCCN(C)C)cc1C(=O)NC1(c2cc(O)cc3ccccc23)CC1 [Compound 345]", "< 100 nM"],
  ["COc1cc(C(C)N2CCC(C(=O)NCc3cccc(F)c3)CC2)c2ccccc2c1 (centres unmarked) [Compound 524]", "100 to 1000 nM"],
  ["Cc1ccc(C(N)=O)cc1C(=O)NC1(c2cccc3ccccc23)CC1 [Compound 257]", "100 to 1000 nM"],
  ["Cc1ccc(NC2CNC2)cc1C(=O)NC1(c2cccc3ccccc23)CC1 [Compound 177]", "100 to 1000 nM"],
  ["Cc1cc2cc(C3COCCN3)[nH]c2cc1C(=O)NC1(c2cccc3ccccc23)CC1 (centres unmarked) [Compound 260]", "100 to 1000 nM"],
  ["CC(c1cccc2ccccc12)N1CCc2ccc(NC(=O)Cc3ccccc3)cc2C1 (centres unmarked) [Compound 139]", "> 5000 nM"],
  ["Cc1ccc(OC2CNC(C)(C)C2)cc1C(=O)NC1(c2cccc3ccccc23)CC1 (centres unmarked) [Compound 533]", "< 100 nM"],
  ["Cc1ccc(COC2CN(C)C2)cc1C(=O)NC1(c2cccc3ccccc23)CC1 [Compound 447]", "100 to 1000 nM"],
  ["COc1ncccc1Nc1ccc(C)c(C(=O)N[C@H](C)c2cccc3ccccc23)c1 [Compound 115]", "1000 to 5000 nM"],
  ["Cc1ccc(C2=CCNC2)cc1C(=O)NC1(c2cccc3ccccc23)CC1 [Compound 398]", "< 100 nM"],
  ["Cc1ccc(OCCNCC2CC2)cc1C(=O)NC1(c2cccc3ccccc23)CC1 [Compound 361]", "< 100 nM"],
  ["C=Cc1cc(C2(NC(=O)c3cc(OC45CCCN(CCC4)C5)ccc3C)CC2)c2cccnc2c1 [Compound 749]", "< 100 nM"],
  ["Cc1ccc(OC[C@@H]2CCN2C)cc1C(=O)NC1(c2cc(N(C)C)nc3cc(F)ccc23)CC1 [Compound 611]", "< 100 nM"]
]}

* * *

- System: SARS-CoV-2 Papain-Like Protease (PLpro) (Severe acute respiratory syndrome coronavirus 2 (2019-nCoV) (SARS-CoV-2), UniProt P0DTD1)
- Test: biochemical
- Condition parameters: SARS-CoV-2 PLpro enzymatic fluorescence assay; read-out: PLpro IC50
Experimental endpoint: IC50

{"columns": ["Compound", "Assay result"],
 "data": [
  ["Cc1cc2c(cc1C(=O)N[C@H](C)c1cccc3ccccc13)OCO2", "1 to 5 µM"],
  ["COc1cc(C2(NC(=O)c3cc(OC[C@@H]4C[C@@H](F)CN4C)ccc3C)CC2)c2ccccc2c1", "< 0.1 µM"],
  ["COCC(NC(=O)c1cc([N+](=O)[O-])ccc1C)c1cccc2ccccc12 (centres unmarked)", "> 5 µM"],
  ["Cc1ccc(C2CCNCC2)cc1C(=O)NC1(c2cccc3ccccc23)CC1", "< 0.1 µM"],
  ["CNCCOc1ccc(C)c(C(=O)NC2(c3cccc4ccccc34)CNC2)c1", "> 5 µM"],
  ["Cc1ccc(OCC2CCN2C)cc1C(=O)NC1(c2cc(N)cc3ccccc23)CC1 (centres unmarked)", "< 0.1 µM"],
  ["Cc1ccc(OC[C@@H]2CCN2C)cc1C(=O)NC1(c2cc(NS(C)(=O)=O)cc3ncccc23)CC1", "< 0.1 µM"],
  ["Cc1cc2cc[nH]c2cc1C(=O)N[C@H](C)c1cccc2ccccc12", "1 to 5 µM"]
]}

* * *

- System: SARS-CoV-2 Papain-Like Protease (PLpro) (Severe acute respiratory syndrome coronavirus 2 (2019-nCoV) (SARS-CoV-2))
- Test: biochemical
- Condition parameters: PLpro 6.25 nM, substrate 25 μM, 60 min at 25° C.; for more potent compounds PLpro 1 nM, 120 min; read-out: PLpro IC50

{"columns": ["Molecule", "IC50"],
 "data": [
  ["CC(=O)c1ccc(C)c(C(=O)N[C@H](C)c2cccc3ccccc23)c1 [Compound 155]", "> 5 µM"],
  ["Cc1ccc(NC2CNC2)cc1C(=O)NC(C)c1cccc2c1OCCO2 (stereo not drawn) [Compound 168]", "> 5 µM"],
  ["COc1ccc(C)c(C(=O)N[C@H](C)c2cccc3ccccc23)c1 [Compound 136]", "1 to 5 µM"],
  ["Cc1ccc(O)cc1C(=O)N[C@H](C)c1cccc2ccccc12 [Compound 101]", "1 to 5 µM"],
  ["Cc1ccc(NC2CNC2)cc1C(=O)NC(C)c1cccc2c1CCCC2 (stereo not drawn) [Compound 172]", "> 5 µM"],
  ["COc1ccc(Cl)c(C(=O)N[C@H](C)c2cccc3ccccc23)c1 [Compound 132]", "> 5 µM"]
]}

* * *

- System: SARS-CoV-2 Papain-Like Protease (PLpro) (Severe acute respiratory syndrome coronavirus 2 (2019-nCoV) (SARS-CoV-2))
- Test: biochemical
- Condition parameters: SARS-CoV-2 PLpro enzymatic fluorescence assay; read-out: PLpro IC50

{"columns": ["Molecule", "IC50"],
 "data": [
  ["Cc1ccc(OCCNCCO)cc1C(=O)NC1(c2cccc3ccccc23)CC1 [Compound 359]", "< 0.1 µM"],
  ["CCCNc1cc(C2(NC(=O)c3cc(OC[C@@H]4CCN4C)ccc3C)CC2)c2cccnc2c1 [Compound 743]", "< 0.1 µM"],
  ["COCC(N)COc1ccc(C)c(C(=O)NC2(c3cccc4ccccc34)CC2)c1 (stereo not drawn) [Compound 400]", "< 0.1 µM"],
  ["Cc1ccc(OCC2CCN2C)cc1C(=O)NC1(c2cccc3nc(F)ccc23)CC1 (stereo not drawn) [Compound 529]", "< 0.1 µM"],
  ["Cc1ccc(OCC2CCN2C)cc1C(=O)NC1(c2cccc3ccc(C(=O)O)cc23)CC1 (stereo not drawn) [Compound 465]", "1 to 5 µM"],
  ["Cc1ccc(OCCN)cc1C(=O)NC1(c2cccc3ncccc23)CC1 [Compound 374]", "< 0.1 µM"]
]}
